# system name: recombinant human GluN1/GluN2A receptor (Homo sapiens, UniProt Q05586+Q12879)
# Construct: expressed in transfected cells; host or cells: HEK293, tetracycline-inducible expression
# Sequence (Q12879 23-1464, other chains not shown): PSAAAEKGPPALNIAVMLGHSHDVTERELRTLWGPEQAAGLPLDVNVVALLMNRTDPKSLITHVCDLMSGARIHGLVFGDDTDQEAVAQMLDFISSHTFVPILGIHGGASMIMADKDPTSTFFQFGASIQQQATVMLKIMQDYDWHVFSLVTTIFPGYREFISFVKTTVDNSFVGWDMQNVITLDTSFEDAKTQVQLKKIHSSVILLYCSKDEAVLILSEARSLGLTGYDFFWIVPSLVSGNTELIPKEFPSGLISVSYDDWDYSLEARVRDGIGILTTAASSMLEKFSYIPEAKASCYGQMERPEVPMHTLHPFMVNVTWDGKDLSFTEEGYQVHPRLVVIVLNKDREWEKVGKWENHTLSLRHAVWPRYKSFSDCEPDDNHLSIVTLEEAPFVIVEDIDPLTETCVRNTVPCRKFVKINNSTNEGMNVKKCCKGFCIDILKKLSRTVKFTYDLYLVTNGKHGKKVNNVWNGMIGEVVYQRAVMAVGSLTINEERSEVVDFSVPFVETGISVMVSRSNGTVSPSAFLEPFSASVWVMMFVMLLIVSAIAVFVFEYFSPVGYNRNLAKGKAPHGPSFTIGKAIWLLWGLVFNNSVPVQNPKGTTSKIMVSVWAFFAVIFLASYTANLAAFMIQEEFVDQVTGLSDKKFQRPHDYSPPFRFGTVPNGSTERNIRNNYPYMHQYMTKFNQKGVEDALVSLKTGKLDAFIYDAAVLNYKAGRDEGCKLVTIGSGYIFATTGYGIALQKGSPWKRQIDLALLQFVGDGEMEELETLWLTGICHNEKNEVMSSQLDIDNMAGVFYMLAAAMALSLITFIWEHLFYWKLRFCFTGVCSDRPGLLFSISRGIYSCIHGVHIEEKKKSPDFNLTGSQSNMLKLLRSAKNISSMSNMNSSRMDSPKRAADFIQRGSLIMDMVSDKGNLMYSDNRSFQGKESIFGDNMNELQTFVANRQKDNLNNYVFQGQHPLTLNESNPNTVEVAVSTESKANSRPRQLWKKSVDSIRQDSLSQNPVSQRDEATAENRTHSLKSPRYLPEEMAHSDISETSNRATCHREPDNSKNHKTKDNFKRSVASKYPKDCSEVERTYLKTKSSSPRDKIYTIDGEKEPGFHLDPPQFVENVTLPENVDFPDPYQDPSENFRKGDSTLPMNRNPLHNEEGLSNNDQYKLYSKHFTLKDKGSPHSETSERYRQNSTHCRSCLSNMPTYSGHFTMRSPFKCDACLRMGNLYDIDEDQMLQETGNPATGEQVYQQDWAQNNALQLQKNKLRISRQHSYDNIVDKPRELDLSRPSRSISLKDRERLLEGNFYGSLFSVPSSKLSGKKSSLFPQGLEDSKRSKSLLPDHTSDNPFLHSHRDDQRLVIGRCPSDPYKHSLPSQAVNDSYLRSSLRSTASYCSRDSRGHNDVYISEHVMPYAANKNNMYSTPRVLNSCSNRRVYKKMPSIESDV
# experimental protocol: Whole-cell patch clamp of mammalian cells (Syncropatch 384i), NMDA modulation
# Assay type: cell-based
# recorded conditions: Table C-2; HEK293 cells, human GluN1/GluN2A; glutamate 1 μM / glycine 100 μM; -80 mV; peak amplitude increase
Recorded Emax, one value per entry.

Answered examples (4):
[[record]]
molecule = "CC[C@]1(O)CC[C@@]2(C)[C@@H](CC[C@@H]3[C@@H]2CC[C@]2(C)[C@@H]([C@H](C)CC[C@H](O)CC#N)CC[C@@H]32)C1"
readout_label = "Emax"
observed_value = "< 100%"

[[record]]
molecule = "C[C@H](CC[C@H](O)C1(C#N)CC1)[C@H]1CC[C@H]2[C@@H]3CC=C4C[C@@](C)(O)CC[C@]4(C)[C@H]3CC[C@]12C"
readout_label = "Emax"
observed_value = "< 100%"

[[record]]
molecule = "CC[C@]1(O)CC[C@@]2(C)C(=CC[C@H]3[C@@H]4CC[C@H]([C@H](C)CC[C@H](O)C(C)(C)C#N)[C@@]4(C)CC[C@@H]32)C1"
readout_label = "Emax"
observed_value = "100 to 200%"

[[record]]
molecule = "CC[C@]1(O)CC[C@@]2(C)[C@@H](CC[C@@H]3[C@@H]2CC[C@]2(C)[C@@H]([C@H](C)CC[C@H](O)C(C)(C)C#N)CC[C@@H]32)C1"
readout_label = "Emax"
observed_value = "100 to 200%"


What value of Emax has been reported for the following compound? CC[C@H](C#N)[C@H](O)CC[C@@H](C)[C@H]1CC[C@H]2[C@@H]3CC[C@H]4C[C@](O)(CC)CC[C@]4(C)[C@H]3CC[C@]12C
> 200%

###

Recorded EC50, one value per entry.
# system name: recombinant human GluN1/GluN2A receptor (Homo sapiens, UniProt Q05586+Q12879)
# Construct: expressed in transfected cells; host or cells: HEK293, tetracycline-inducible expression
# experimental protocol: Whole-cell patch clamp of mammalian cells (Syncropatch 384i), NMDA modulation
# Format: cell-based
# recorded conditions: Table E-2; HEK293 cells, human GluN1/GluN2A; glutamate 1 μM / glycine 100 μM; -80 mV; peak amplitude increase; read-out: EC50

[[record]]
molecule = "CC[C@]1(O)CC[C@]2(C)C3=CC[C@]4(C)[C@@H]([C@H](C)CCC(C)(C)O)CC[C@H]4[C@@H]3CC[C@H]2C1"
readout_label = "EC50"
observed_value = "1 to 100 nM"

[[record]]
molecule = "C[C@H](CC[C@@H](O)C1(C#N)CC1)[C@H]1CC[C@H]2[C@@H]3CC[C@H]4C[C@@](C)(O)CC[C@]4(C)C3=CC[C@]12C"
readout_label = "EC50"
observed_value = "1 to 100 nM"

[[record]]
molecule = "C[C@H](CCCO)[C@H]1CC[C@H]2[C@@H]3CC[C@H]4C[C@@](C)(O)CC[C@]4(C)C3=CC[C@]12C"
readout_label = "EC50"
observed_value = "1 to 100 nM"

[[record]]
molecule = "CCC(O)(CC)CC[C@@H](C)[C@H]1CC[C@H]2[C@@H]3CC[C@H]4C[C@@](C)(O)CC[C@]4(C)C3=CC[C@]12C"
readout_label = "EC50"
observed_value = "500 to 1000 nM"


# query: EC50 | item C[C@H](CC[C@H](O)C1(C#N)CC1)[C@H]1CC[C@H]2[C@@H]3CC[C@H]4C[C@@](C)(O)CC[C@]4(C)C3=CC[C@]12C | system: recombinant human GluN1/GluN2A receptor (Homo sapiens, UniProt Q05586+Q12879)
100 to 500 nM
